Data credit: ChEMBL document CHEMBL4017519

target.system: Lysine-specific histone demethylase 1A (Homo sapiens, UniProt O60341)
test.method.notes: Inhibition of N-terminal truncated human LSD1 (151 to 852 residues) expressed in Escherichia coli after 30 mins using histone H3(1-21)K4(Me1) biotin peptide as substrate by TR-FRET assay
reported.endpoint: pIC50
Please report pIC50 as the negative decimal logarithm of the molar concentration, giving only the number.

Solved entries:
>  <compound.smiles>
N#Cc1ccc(N(CC(=O)N2CCC(CN)CC2)Cc2ccc(C(N)=O)cc2)cc1

>  <target.system>
Lysine-specific histone demethylase 1A (Homo sapiens, UniProt O60341)

>  <pIC50>
6.08

$$$$
>  <compound.smiles>
Cc1ccc(CN(CC(=O)N2CCC(CN)CC2)c2ccc(C#N)cc2)cc1

>  <target.system>
Lysine-specific histone demethylase 1A (Homo sapiens, UniProt O60341)

>  <pIC50>
6.54

$$$$

GET /values?readout=pIC50&item= Cc1ccc(S(=O)(=O)N(CC(=O)N2CCC[C@@H](N)C2)c2ccc(C#N)cc2)cc1
4.86

GET /values?readout=pIC50&item= N#Cc1ccc(N(CC(=O)N2CCC(CN)CC2)Cc2ccc(F)cc2)cc1
5.89

GET /values?readout=pIC50&item= Cn1cc2cc(N(CC(=O)N3CCC[C@@H](N)C3)S(=O)(=O)c3ccc(C#N)cc3)ccc2n1
4.52

GET /values?readout=pIC50&item= Cc1ccc(S(=O)(=O)N(CC(=O)N2CCC(N)CC2)c2ccc(C#N)cc2)cc1
5.12
